System: CCRF-CEM leukemia
Assay: NCI tumour cell line growth inhibition, 48 h
I'd be grateful if you could share measured TGI for these entries.

Example cases with answers are listed next.
Data request: Please give the measured TGI for this compound: CCOC(=O)C1C(c2ccc(OC)cc2)c2c([nH][nH]c2=O)CC1(O)OCC (stereo unspecified)
Data returned: > 100 µM

Data request: Please give the measured TGI for this compound: CCOC(=O)C1=C(Nc2ccc(Cl)cc2Cl)OC/C1=N\NS(=O)(=O)c1ccc(C)cc1
Data returned: > 100 µM

Data request: Please give the measured TGI for this compound: C=CCN1C=CC(=O)[C@H](O[Si](C)(C)C(C)(C)C)[C@@H]1/C=C/c1ccccc1
Data returned: 40.1 µM

Data request: Please give the measured TGI for this compound: O=c1c2cc([N+](=O)[O-])ccc2n2n1Cc1ccccc1C2
Data returned: > 100 µM

Data request: Please give the measured TGI for this compound: O=c1c2cccnc2cc(-c2ccccc2)n1CCO
Data returned: > 100 µM

Could I get TGI for every one of these entries?
1. COC(=O)c1ccccc1/C=C1\Cc2cc(C)cc(C)c2C1=O
2. COc1cc(C(=O)C/C(CCC(=O)Nc2ccc(Cl)cc2C)=N/NC(=O)C(N)=O)ccc1O

Data returned:
> 100 µM
> 100 µM

Could I get TGI for every one of these entries?
1. CCC(=O)NC(Nc1ccc(O)cc1)(C(F)(F)F)C(F)(F)F
2. O=C(O)CC12C3C4C5C3C1C5C42 (stereo unspecified)
3. Cc1ccc(/C=C/C(=O)c2sc(-c3cccnc3)nc2C)cc1
4. CCCn1c(SCC)c2cc3cc4ccccc4cc3cc2c1-c1nc(F)nc(F)n1

Data returned:
> 100 µM
> 100 µM
> 100 µM
> 100 µM

Could I get TGI for every one of these entries?
1. Cn1nc(-c2ccccc2)nc1[N+](=O)[O-]
2. CC1=CC(=O)C(=O)C2=C1OC1(C2)C(C)CCC2C3(C)CCC(O)C(C)(C)C3CCC21C (stereo unspecified)
3. COc1cc(NCc2ccc3nc(OC)c(OC)nc3c2)cc(OC)c1OC
4. CN(C)C(=O)Nc1cc2c3c(c1)CCCN3CCC2

Data returned:
1. > 10 µM
2. 65.2 µM
3. > 100 µM
4. > 10 µM

====

I'd be grateful if you could share measured TGI for these entries.
Tested on: RPMI-8226 leukemia
Assay: NCI tumour cell line growth inhibition, 48 h

Data request: Please give the measured TGI for this compound: C[C@]12CC[C@H](OCCC#N)CC1=CC[C@@H]1C2CC[C@]2(C)/C(=N/OCCC#N)CCC12 (stereo partly specified)
Data returned: > 100 µM

Data request: Please give the measured TGI for this compound: COc1cc(C=Nc2ccc(C(C)C)cc2)cc(OC)c1OC
Data returned: > 68.4 µM

Data request: Please give the measured TGI for this compound: Cc1occc1C(=S)Nc1ccc(Cl)c(/C=N/OC(C)C)c1
Data returned: > 67.6 µM

Could I get TGI for every one of these entries?
1. COC1OC(C)C(O)CC1OS(=O)(=O)c1ccc(C)cc1 (stereo unspecified)
2. c1cn2cc(-c3ccc4ncn(C5CCCCC5)c4c3)nc(-c3ccc4c(c3)ncn4C3CCCCC3)c2n1
3. CCOC(=O)C(NC(=O)CC(C)C)(Nc1ccc(S(=O)(=O)Nc2nc(C)cc(C)n2)cc1)C(F)(F)F (stereo unspecified)
4. CN(C(=O)Cc1ccc(Cl)c(Cl)c1)[C@@H]1CCCC[C@H]1[N+]1(C)CC=CC1
5. CCCn1c(SCC)c2cc3cc4ccccc4cc3cc2c1-c1nc(F)nc(F)n1
6. CCC(=O)NC(Nc1ccc(O)cc1)(C(F)(F)F)C(F)(F)F

Data returned:
1: > 100 µM; 2: 3.99 µM; 3: > 100 µM; 4: > 100 µM; 5: > 100 µM; 6: > 100 µM

Could I get TGI for every one of these entries?
1. C=C(Br)CN(C(C)=O)C1CCCCC1
2. CCCCCC(CO)C(O)(C(F)(F)F)C(F)(F)F (stereo unspecified)
3. COc1ccc2c(CN3CCC[C@H]3C(=O)O)cc3cc4c(cc3c2c1)OCO4
4. Cc1cc(N2CCCC2)nc(NC2CCCC(Nc3ccnc4cc(Cl)ccc34)C2)n1 (stereo unspecified)
5. CC(=O)N/C(=C\c1cccc([N+](=O)[O-])c1)c1nc2c3c(ccc2[nH]1)C(=O)c1ccccc1C3=O
6. C(=NCc1ccccc1)c1ccccc1-c1ccccc1C=NCc1ccccc1
7. CN(C)CCCCN1c2ccccc2Sc2cc(N=[N+]=[N-])ccc21

Data returned:
1. > 100 µM
2. > 10 µM
3. 39.3 µM
4. 1.4 µM
5. > 100 µM
6. > 10 µM
7. 6.06 µM

Could I get TGI for every one of these entries?
1. COc1ccc(-c2nc3ncccn3c2/C=C/C(=O)c2cc(OC)c(OC)c(OC)c2)cc1
2. C[C@@H]1N=C(c2ccc(Br)cc2)Nc2nc3ccccn3c2C1=O
3. COC(=O)C12C(=O)O[C@H](C)C1(O)C(C)C(=O)N2C (stereo partly specified)

Data returned:
["> 100 µM", "> 100 µM", "> 100 µM"]

Could I get TGI for every one of these entries?
1. CCC1=CC2Cc3nc4cc(Cl)ccc4c(N)c3C(C1)C2 (stereo unspecified)
2. CSc1nc(NC(=O)O)c(N(C(C)=O)C(=O)O)c(=O)n1C

Data returned:
1: 5.79 µM; 2: > 100 µM
